Value source: BindingDB's records for doi:10.1016/s0960-894x(98)00116-4

- tested-target: Lactoylglutathione lyase (Saccharomyces cerevisiae)
- method: Compound was evaluated for inhibition of Saccharomyces cerevisiae glyoxalase-I by using enzymatic assay at each of 6 substrate concentrations between 0.1 mM and 2.0 mM
*1 amine or outer side, *2 acyl side, *3 side chain or, on linkers, in order; H or OH if unused. Where a SMILES comes first, the peptide text is derived from it. The star is where a group is joined. γGlu = O=C(O)[CH](CCC(=O)[*:2])N[*:1]; NHOH = ON*
measurement-kind: pKi
One number for each entry, as −log10 of the molar value.

[
  {
    "molecule": "CN(O)C(=O)CCC(NC(=O)CCC(N)C(=O)O)C(=O)NCC(=O)O (configuration not stated)",
    "pKi": 5.72
  }
]

Task: Which pKi is listed for NC(CCC(=O)NC(CCC(=O)NO)C(=O)NCC(=O)O)C(=O)O (configuration not stated) (γGlu-Glu(NHOH)-Gly-OH; configuration not given here) ?
Output: 4.03
